biological target: 5-HT2B receptor (Homo sapiens, UniProt P41595); construct: host or cells: CHO-K1; experiment: cell-based
Sequence (P41595 whole entry): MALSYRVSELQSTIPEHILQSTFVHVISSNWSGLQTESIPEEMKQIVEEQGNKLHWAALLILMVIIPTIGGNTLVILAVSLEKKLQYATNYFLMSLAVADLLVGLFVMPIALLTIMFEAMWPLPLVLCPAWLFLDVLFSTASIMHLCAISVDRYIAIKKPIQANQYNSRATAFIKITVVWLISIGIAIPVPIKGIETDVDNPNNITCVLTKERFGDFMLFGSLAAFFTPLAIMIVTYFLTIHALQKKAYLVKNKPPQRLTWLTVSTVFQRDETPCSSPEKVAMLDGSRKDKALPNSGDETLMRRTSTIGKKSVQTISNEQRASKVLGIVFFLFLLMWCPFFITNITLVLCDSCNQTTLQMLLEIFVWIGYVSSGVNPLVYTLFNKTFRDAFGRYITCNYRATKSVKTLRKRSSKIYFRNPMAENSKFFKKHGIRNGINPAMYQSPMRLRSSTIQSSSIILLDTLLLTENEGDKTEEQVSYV
# reported pEC50; entries follow
Hey, just a heads up that pEC50 is the negative log base 10 of the concentration in molar.

For orientation, consider the following solved cases.
In [3]: df
Out[3]:
                         smiles_data  readout_label  result_number
0  CCN(CC)CCc1c[nH]c2ccc3oc(C)nc3c12          pEC50           7.22
1     CCN(CC)CCc1c[nH]c2ccc3ocnc3c12          pEC50           7.83

(Q) Report measured pEC50; entry is `CN(C)CCc1c[nH]c2ccc3oc(=O)[nH]c3c12`
(A) 7.84

* * *

assay: In vivo pharmacokinetics, plasma and brain exposure after IP dosing; set-up: species or system male C57BL/6 mice; conditions: male, C57BL/6, mouse, plasma, ip, 10 mg/kg, 4 h, n = 3, read-out: Plasma Concentration, Mean ± SD
readout label: concentration at 4 h (nM)
// units = nM; emit number, no label

(Q) State its concentration at 4 h for this compound: `CCN(C)CCc1c[nH]c2cc(C)c(OC)cc12`
(A) 27.3

(Q) Give the reported concentration at 4 h for this compound. `CCN(C)CCc1c[nH]c2ccc(OC)c(C)c12`
(A) 9.2

(Q) Note down concentration at 4 h recorded for `CCN(C)CCc1c[nH]c2c(C)cc(OC)cc12`
(A) 62.2

* * *

target: 5-HT2B receptor (Homo sapiens); construct: host or cells: CHO-K1; experiment: cell-based; details: agonist activity, Ca2+ flux, CHO-K1 cells
readout label: Emax (%)
Give the quantity in %, number only.

Would you please look over these solved cases?
                              smiles_data  readout_label  unit_string  result_number
0  COc1cc(C)c2[nH]cc(CCN(C(C)C)C(C)C)c2c1           Emax            %           42.8
1          CCN(C)CCc1c[nH]c2cc(F)cc(F)c12           Emax            %           35.6
2        CCN(CC)CCc1c[nH]c2c(F)cc(OC)cc12           Emax            %           41.2
3          COc1cc(C)c2[nH]cc(CCN(C)C)c2c1           Emax            %            0.5
4           Cc1cc(O)c2c(CCN(C)C)c[nH]c2c1           Emax            %           1.23

(Q) Fill in reported Emax for this entry: `COc1cc(F)cc2[nH]cc(CCN(C)C(C)C)c12`
(A) 14.2

(Q) Hello, please tell me recorded Emax for this one: `COc1c(F)ccc2[nH]cc(CCN(C)C(C)C)c12`
(A) 51.5

(Q) In one line, give reported Emax of the entry `Cc1ccc(O)c2c(CCN(C)C(C)C)c[nH]c12` .
(A) -0.38

(Q) Supply reported Emax belonging to this compound: `CCN(CC)CCc1c[nH]c2c(F)ccc(OC)c12`
(A) 13.1

(Q) Indicate its recorded Emax; the compound in question is `CC(C)N(C)CCc1c[nH]c2ccc3ocnc3c12`
(A) 16.8

The reported measurements were obtained from patent US20250101038A1.
